Reference source: patent US5001255A

For each entry below, report its pIC50 value.
Study System: HMG-CoA reductase (Rattus norvegicus, UniProt P51639)
Sequence (P51639 1-887): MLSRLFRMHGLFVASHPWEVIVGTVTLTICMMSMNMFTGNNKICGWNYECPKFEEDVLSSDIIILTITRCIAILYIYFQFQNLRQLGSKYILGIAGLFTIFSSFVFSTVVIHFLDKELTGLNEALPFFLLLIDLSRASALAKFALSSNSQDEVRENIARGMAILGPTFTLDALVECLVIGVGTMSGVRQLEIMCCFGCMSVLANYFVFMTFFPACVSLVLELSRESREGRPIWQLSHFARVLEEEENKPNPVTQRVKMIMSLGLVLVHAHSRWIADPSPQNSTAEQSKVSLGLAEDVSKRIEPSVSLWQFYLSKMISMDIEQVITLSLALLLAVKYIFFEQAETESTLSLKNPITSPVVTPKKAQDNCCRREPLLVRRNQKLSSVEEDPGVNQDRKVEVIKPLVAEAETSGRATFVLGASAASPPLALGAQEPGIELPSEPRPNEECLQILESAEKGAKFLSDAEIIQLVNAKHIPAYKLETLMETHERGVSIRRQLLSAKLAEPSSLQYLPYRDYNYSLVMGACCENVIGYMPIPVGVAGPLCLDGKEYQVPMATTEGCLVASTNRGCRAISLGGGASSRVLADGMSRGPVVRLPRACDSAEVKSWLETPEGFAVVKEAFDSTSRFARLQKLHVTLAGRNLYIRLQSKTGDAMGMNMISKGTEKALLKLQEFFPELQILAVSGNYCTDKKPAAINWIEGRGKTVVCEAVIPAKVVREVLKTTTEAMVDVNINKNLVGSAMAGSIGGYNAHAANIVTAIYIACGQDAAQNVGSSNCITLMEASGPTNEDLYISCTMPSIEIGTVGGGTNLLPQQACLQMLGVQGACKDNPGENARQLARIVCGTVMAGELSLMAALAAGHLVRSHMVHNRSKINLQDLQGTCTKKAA
The read-out pIC50 is expressed as -log10 of concentration in moles per litre.

Exercise: pIC50 for Cc1cc(C)cc(C2=C(/C=C/[C@H]3C[C@@H](O)CC(=O)O3)C3(CCCC3)c3ccccc32)c1 (relative stereo) [Example 7] ?
Key: 6.82

Exercise: pIC50 for CC(C)C1C(/C=C/[C@@H]2C[C@@H](O)CC(=O)O2)=C(c2ccc(F)cc2)c2ccccc21 (stereo partly shown) [Example 20] ?
Key: 6.28

Exercise: pIC50 for Cc1cc(C)cc(C2=C(/C=C/[C@@H](O)C[C@@H](O)CC(=O)O)C3(CCCC3)c3ccccc32)c1 (relative stereo) [Example 8] ?
Key: 8.15

Exercise: pIC50 for O=C(O)C[C@H](O)C[C@H](O)/C=C/C1=C(c2ccc(F)cc2)c2ccccc2C12CCCC2 ?
Key: 8.52
